Measured log10(solubility) accompanies every entry in the list below.
measurementContext: 25 °C
In our notation, the value equals log10 of solubility in mM.

CCCC(=O)CC = 2.17

Request: // lookup log10(solubility) for CCn1cc(C(=O)O)c(=O)c2cnc(N3CCNCC3)nc21
Response: 0.03

* * *

log10(solubility) values, listed per item
measurementContext: 20 °C
The base-10 logarithm of solubility, taken with solubility in mM, is what appears here.

# example entries with known answers
CCOP(=S)(OCC)OP(=S)(OCC)OCC = -1.03
O=C(O)[C@H]1CCCC[C@@H]1C(=O)O (relative stereo) = 1.06
Clc1c(Cl)c(Cl)c2c(c1Cl)Oc1c(Cl)c(Cl)c(Cl)c(Cl)c1O2 = -9.06
Cc1nc(NS(=O)(=O)c2ccc(N)cc2)oc1C = 0.80

API: the following record is the query input.
Request: Look up log10(solubility) for this compound: OCCOc1ccccc1
Response: 2.29

* * *

measurementContext: 25 °C
recordedMetric: solubility (mM)
Field: numeric (mM). Do not append units.

See these solved cases before continuing.
C[C@]12CC[C@H]3C(=CCc4cc(O)ccc43)[C@@H]1CCC2=O = 0.00525
CC1(C)C(=O)[C@@]2(C)CC[C@@H]1C2 = 14.1
Cc1cc(C)c2ccccc2n1 = 11.4
C#CCCCC = 4.73

Request: So what's the measured solubility for this one? CCC1(C2=CCCCC2)C(=O)NC(=O)NC1=O
Response: 6.77

Request: Repeat for the following compound: CCOP(=O)(OCC)OCC
Response: 2740

Request: # iterate: Cc1cccc2c1ccc1ccccc12
Response: 0.0014

Request: // same read-out, input: CC1CCC(C(C)C)C(O)C1 (stereo not given)
Response: 2.91

Request: Also check CC/C(=C(/CC)c1ccc(O)cc1)c1ccc(O)cc1
Response: 0.0447

Request: And the next one, C=CCCCCC ?
Response: 0.185

* * *

measurementContext: 20 °C
recordedMetric: solubility (mM)
I only need the number, in mM, no unit after it.

Look over these answered cases.
COc1ccc(C(=O)c2cccc(C)c2)cc1C = 0.00832
O=Cc1ccc2c(c1)OCO2 = 23.3
CC(=O)CCC1C(=O)N(c2ccccc2)N(c2ccccc2)C1=O = 0.54

As a next step, examine the compound that follows.
Request: # input compound: OC[C@H]1O[C@@H](n2cnc3c(O)ncnc32)[C@H](O)[C@@H]1O ; wanted: its solubility
Response: 58.9

* * *

measurementContext: 22 °C
Could you label it Yes if measured solubility is 6000 µM or higher, and No otherwise?

CC(=O)c1ccc(O)cc1 = Yes
CCSC(=O)N(CC(C)C)CC(C)C = No
Cc1cc(S(=O)(=O)c2ccccc2)ccc1NS(=O)(=O)C(F)(F)F = No
CNC(=O)ON=C(CSC)C(C)(C)C = Yes
O=[N+]([O-])c1ccc(Oc2ccc(Cl)cc2Cl)cc1 = No

Request: Identify whether the reported solubility of the following molecule is 6000 µM or greater: CN(C)C(=O)N(C(=O)c1ccccc1)c1ccc(Cl)c(Cl)c1
Response: No

* * *

measurementContext: 25 °C
// label = Satisfied if solubility is not less than 10 mM, otherwise Not satisfied

O=C(O)c1cc(I)cc(I)c1O = Not satisfied
CCCCc1c(C)nc(N(C)C)nc1O = Not satisfied
Cc1ccc(C(=O)O)cc1 = Not satisfied

Request: Kindly determine if solubility recorded for O=C(O)c1cc(=O)cc(C(=O)O)o1 is above or exactly 10 mM.
Response: Satisfied

Request: Entry to check: O=c1cc[nH]c(=O)[nH]1
Response: Satisfied

Request: Try this molecule next: Clc1cc(-c2ccccc2)c(Cl)c(Cl)c1Cl
Response: Not satisfied

Request: Also check CN1CC(O)N(c2nnc(C(C)(C)C)s2)C1=O (stereo not given)
Response: Satisfied

Request: # iterate: Clc1ccc(-c2ccc(Cl)c(Cl)c2)cc1Cl
Response: Not satisfied

Request: Now the molecule C#CCCCCC
Response: Not satisfied

* * *

measurementContext: 25 °C
recordedMetric: solubility (mM)
// note: answer is a bare numeric in mM

COP(=O)(Oc1ccccc1)Oc1ccccc1 = 7.57
O=C(O)c1cc(Cl)ccc1[N+](=O)[O-] = 48
O=C(O)C(=O)Nc1ccccc1 = 49.9

Request: Quick check: solubility of CCC(N)C(=O)O (centres undefined) ?
Response: 2050

* * *

measurementContext: 25 °C
recordedMetric: solubility (mM)
Give just the numeric value; mM need not be written.

CCc1ccc2ccccc2c1 = 0.0513
CC(C(=O)O)C(=O)O = 5750
COc1c2occc2c(OC)c2c(=O)cc(C)oc12 = 4

Request: Entry under review: O=C1NC(=O)c2ccccc21 . Reported solubility?
Response: 2.45

Request: Another: CCOC(=O)CC#N
Response: 177

Request: Also check O=C=O
Response: 33.5

Request: Quick one: Cc1cccc2c1Cc1ccccc1-2
Response: 0.00605

Request: Do the same for Fc1cc(F)c(F)c(F)c1 please
Response: 4.95

Request: Can you check CCCOC(C)C next?
Response: 46

Request: Entry to check: CNc1ccccc1
Response: 52.4

Request: Try this molecule next: C=CCCBr
Response: 5.66

Request: Same again, this time with Cc1cc(-c2ccc(N)c(C)c2)ccc1N
Response: 6.12

* * *

measurementContext: 25 °C
# log10 of solubility listing for each entry below
Hello, just confirming the data are log10 of solubility with units of mM.

ClC1=C(Cl)[C@]2(Cl)[C@H]3[C@H]([C@@H]4C=C[C@H]3C4)[C@@]1(Cl)C2(Cl)Cl (racemic) = -4.33
CN(C)C(=O)N[C@@H]1C[C@@H]2C[C@H]1[C@@H]1CCC[C@H]21 = -0.17
CC(C)C(C)C(C)C = -1.70

Request: // returns reported log10 of solubility for input Fc1ccccc1Cl
Response: 0.58

Request: Repeat for the following compound: Clc1cc(Cl)c(-c2ccccc2)c(Cl)c1
Response: -3.01

* * *

The following molecules are listed with their measured solubility values.
measurementContext: 25 °C
Entry format: amount then unit.

NCCC(=O)O = 6120 mM

Lab note: next molecule to report on.
Request: // lookup solubility for COc1ccc2c(c1OC)C(=O)OC2
Response: 12.9 mM

* * *

measurementContext: 25 °C
solubility values, listed per item
Report the figure in µM without appending any unit label.

Worked set:
Nc1ccc(S(=O)(=O)Nc2ncccn2)cc1 = 308
Fc1cccc(CCl)c1 = 2860
C#CCCCC#C = 17500

Okay, next one:
Request: Quick one: solubility of COP(=S)(NC(C)C)Oc1ccc(Cl)cc1Cl (centres undefined) ?
Response: 15.9

Taken from the OPERA property sets (Mansouri et al. 2018).
